procedure_text: Quantitative highthroughput screen to assess conditional lethalithy of SEM cells grown in RPMI1640 with unreated serum (RPMI+s) (AID 1963883); note: nearly all actives have a fitted effect of over 35% in size;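 for viability: 100% = DMSO wells and 0% = empty wells without cells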
cond: SEM B-ALL cells, CellTiter-Glo viability, 48 h; series mostly up to 45.8 µM
Results filed as inconclusive are left out. Activity calls are given as the source filed them. Calls come from the whole dose curve; as a rule, active = well fitted cell-killing curve with a large enough effect; inconclusive = small, poorly fitted or top-dose-only effect, or effect the other way; inactive = no such curve, though single readings can be large or run the other way.
Please reply with one of these outcomes: 1 (yes) (active), 0 (no) (inactive)

Worked cases, answers included:
C=CCNC1=C2C[C@@H](C)C[C@H](OC)[C@@H](O)[C@@H](C)C=C(C)[C@H](OC(N)=O)[C@@H](OC)C=CC=C(C)C(=O)NC(=CC1=O)C2=O	1 (yes)
Cc1c(OCC(F)(F)F)ccnc1CS(=O)c1nc2ccccc2[nH]1 (stereo unspecified)	0 (no)
CN1C[C@H]2c3ccccc3Oc3ccc(Cl)cc3[C@@H]2C1	1 (yes)

QUERY: Call for entry NS(=O)(=O)NCCNc1nonc1C(=Nc1ccc(F)c(Br)c1)NO :
RESULT: 1 (yes)

QUERY: I would be grateful if you could indicate the recorded call for CN1CCC(=C2c3ccccc3C=Cc3ccccc32)CC1 .
RESULT: 0 (no)

QUERY: What did the test return for Cc1cccc(Nc2nc(N[C@@H]3CCCC[C@H]3N)ncc2C(N)=O)c1 ?
RESULT: 1 (yes)

QUERY: Record request — test call for COc1ccc(-c2nc3ccc(C4=NNC(=O)CC4C)cc3[nH]2)cc1 (stereo unspecified)
RESULT: 0 (no)

QUERY: Each compound tested received a call. Report the one for CC(=O)Oc1ccccc1C(=O)O .
RESULT: 0 (no)
